Molecular target: XIAP BIR-3 (Homo sapiens, UniProt P98170)
Construct: 40 nM of the respective IAP BIR3
Sequence (P98170 241-356 limits assumed): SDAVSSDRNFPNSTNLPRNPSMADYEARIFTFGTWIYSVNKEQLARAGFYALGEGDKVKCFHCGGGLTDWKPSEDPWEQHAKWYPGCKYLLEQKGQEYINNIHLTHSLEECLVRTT
Experiment: Fluorescence polarization binding affinity to XIAP BIR-3 (competition with AbuRPF-K(5-Fam)-NH2)
Conditions: 5 nM labeled peptide, 40 nM BIR3, 15 min at RT, pH 7.5; reported as ranges
pKd: −log10 of the molar value.
Measured attribute: pKd

Some compounds with recorded pKd:
Smiles input | System | pKd
CN[C@@H](C)C(=O)N[C@H](C(=O)N1C[C@@H](O)[C@H]2NC[C@H](c3c[nH]c4cc(F)ccc34)[C@H]21)C1CCCCC1 | XIAP BIR-3 (Homo sapiens, UniProt P98170) | 6.00 to 7.00
CN[C@@H](C)C(=O)N[C@H](C(=O)N1CC[C@@H]2[C@H]1[C@@H](c1c[nH]c3ccc(F)cc13)CN2C(C)=O)C1CCCCC1 | XIAP BIR-3 (Homo sapiens, UniProt P98170) | > 7.00
CN[C@@H](C)C(=O)N[C@@H](CO)C(=O)N1CC[C@@H]2[C@H]1[C@@H](c1c[nH]c3cc(F)ccc13)CN2C1CCCC1 | XIAP BIR-3 (Homo sapiens, UniProt P98170) | 6.00 to 7.00
CN[C@@H](C)C(=O)N[C@H](C(=O)N1CC[C@@H]2[C@H]1[C@H](c1c[nH]c3cc(F)ccc13)CN2S(C)(=O)=O)C(C)(C)C | XIAP BIR-3 (Homo sapiens, UniProt P98170) | 5.00 to 6.00
CN[C@@H](C)C(=O)N[C@H](C(=O)N1CC[C@@H]2[C@H]1[C@@H](c1c[nH]c3cc(F)ccc13)CN2C1CCCC1)C(C)C | XIAP BIR-3 (Homo sapiens, UniProt P98170) | 6.00 to 7.00

CC[C@H](NC(=O)[C@H](C)NC)C(=O)N1CC[C@@H]2[C@H]1[C@H](c1c[nH]c3cc(F)ccc13)CN2C1CCCC1 has a reported pKd of < 5.00

CO[C@H](C)[C@H](NC(=O)[C@H](C)N)C(=O)N1CC[C@H]2NC[C@H](c3cn(Cc4ccccc4)c4cc(F)ccc34)[C@H]21 has a reported pKd of > 7.00

CN[C@@H](C)C(=O)N[C@H](C(=O)N1CC[C@@H]2[C@H]1[C@@H](c1c[nH]c3cc(F)ccc13)CN2Cc1ccccc1)[C@@H](C)OC has a reported pKd of > 7.00

CN[C@@H](C)C(=O)N[C@H](C(=O)N1CC[C@@H]2[C@H]1[C@@H](c1c[nH]c3cc(F)ccc13)CN2C1CCNCC1)C1CCCCC1 has a reported pKd of 6.00 to 7.00

---

Quick reference: CC50 of the listed items.
Test system: SK-OV-3 cells
Test: Growth inhibition of ovarian cancer cell line SK-OV-3 (MTT assay, cell survival)
Format: cell-based
Details: Homo sapiens, drug concentration that results in 50% cell survival, 72 hrs incubation, reported as ranges

Some compounds with recorded CC50:
Compound | CC50
CN[C@@H](C)C(=O)N[C@H](C(=O)N1C[C@@H](O)[C@@H]2[C@H]1[C@@H](c1c[nH]c3cc(F)ccc13)CN2C(=O)OCc1ccccc1)C1CCCCC1 [Example 84] | < 0.1 µM
CN[C@@H](C)C(=O)N[C@H](C(=O)N1CC[C@@H]2[C@H]1[C@@H](c1c[nH]c3cc(F)ccc13)CN2S(C)(=O)=O)C(C)C [Example 48] | < 0.1 µM

Please look at the following compound next.
CN[C@@H](C)C(=O)N[C@H](C(=O)N1CC[C@@H]2[C@H]1[C@@H](c1c[nH]c3cc(F)ccc13)CN2C(C)=O)[C@@H](C)OC [Example 66] has a reported CC50 of < 0.1 µM
